System: Escherichia coli NIHJ JC-2
Assay: Minimum inhibitory concentration (MIC)
Type: cell-based
Conditions: NIHJJC2; Escherichia coli NIHJ JC-2; bacterial suspension 10^6 cells/ml; sodium salts tested; read-out: Minimum inhibitory concentration
I'd be grateful if you could share measured MIC for these entries.
Answers are plain numbers, in µg/mL.

Some solved cases for reference:
// fetch Escherichia coli NIHJ JC-2 MIC for CC(=O)Oc1ccc(C(=O)NC(C(=O)N[C@@H]2C(=O)N3C(C(=O)O)=C(CSc4nnnn4C)CS[C@H]23)c2csc(N)n2)cc1OC(C)=O (mixture of isomers)
0.2

Item: CC(=O)OCC1=C(C(=O)O)N2C(=O)[C@@H](NC(=O)C(NC(=O)c3cccc(OC(C)=O)c3)c3csc(N)n3)[C@H]2SC1 (mixture of isomers) Test system: Escherichia coli NIHJ JC-2 Read-out: MIC Value: ?
1.56

Which measured MIC belongs to CO[C@@]1(NC(=O)C(NC(=O)c2cccc(OC(C)=O)c2OC(C)=O)c2csc(N)n2)C(=O)N2C(C(=O)O)=C(COC(C)=O)CS[C@@H]21 (mixture of isomers) , tested on Escherichia coli NIHJ JC-2?
25

API: value(readout= MIC, system= Escherichia coli NIHJ JC-2, query= CC(=O)Oc1cccc(C(=O)NC(C(=O)N[C@@H]2C(=O)N3C(C(=O)O)=C(CSc4nnnn4C)CS[C@H]23)c2csc(N)n2)c1OC(C)=O (mixture of isomers) )
3.12

Identify the measured MIC of CO[C@@]1(NC(=O)C(NC(=O)c2ccc(OC(C)=O)c(OC(C)=O)c2)c2csc(N)n2)C(=O)N2C(C(=O)O)=C(COC(C)=O)CS[C@@H]21 (mixture of isomers) for Escherichia coli NIHJ JC-2.
3.12

Next, consider the following compound.
Item CCOC(=O)Oc1ccc(C(=O)NC(C(=O)N[C@]2(OC)C(=O)N3C(C(=O)O)=C(COC(C)=O)CS[C@@H]32)c2csc(N)n2)cc1OC(=O)OCC (mixture of isomers) with Escherichia coli NIHJ JC-2 - MIC?
12.5

====

Tested on: Pseudomonas aeruginosa K-13
Experiment: Minimum inhibitory concentration (MIC)
Assay type: cell-based
Conditions: K13; Pseudomonas aeruginosa K-13; bacterial suspension 10^6 cells/ml; sodium salts tested; read-out: Minimum inhibitory concentration
Would you mind telling me the reported MIC of each entry?
Numbers only, in µg/mL.

What value of measured MIC is listed for CO[C@@]1(NC(=O)C(NC(=O)c2ccc(O)c(O)c2)c2csc(N)n2)C(=O)N2C(C(=O)O)=C(COC(C)=O)CS[C@@H]21 (mixture of isomers) ?
0.78

Quick one: MIC of CO[C@@]1(NC(=O)C(NC(=O)c2cc(OC(C)=O)c(OC(C)=O)c(OC(C)=O)c2)c2csc(N)n2)C(=O)N2C(C(=O)O)=C(COC(C)=O)CS[C@@H]21 (mixture of isomers) ?
1.56

Could you tell me which MIC is on file for CC(=O)OCC1=C(C(=O)O)N2C(=O)[C@@H](NC(=O)C(NC(=O)c3ccccc3OC(C)=O)c3csc(N)n3)[C@H]2SC1 (mixture of isomers) ?
25

// next entry
// MIC lookup, key: CCOC(=O)Oc1ccc(C(=O)NC(C(=O)N[C@@H]2C(=O)N3C(C(=O)O)=C(CSc4nnnn4C)CS[C@H]23)c2csc(N)n2)cc1OC(=O)OCC (mixture of isomers)
0.2

Reference source for all entries: patent EP0115820A2
